# Tgt: PKG1α(h) (Homo sapiens, UniProt Q13976)
# Construct: purchased Millipore (IC50 Profiler Express service)
# Sequence (Q13976 1-671): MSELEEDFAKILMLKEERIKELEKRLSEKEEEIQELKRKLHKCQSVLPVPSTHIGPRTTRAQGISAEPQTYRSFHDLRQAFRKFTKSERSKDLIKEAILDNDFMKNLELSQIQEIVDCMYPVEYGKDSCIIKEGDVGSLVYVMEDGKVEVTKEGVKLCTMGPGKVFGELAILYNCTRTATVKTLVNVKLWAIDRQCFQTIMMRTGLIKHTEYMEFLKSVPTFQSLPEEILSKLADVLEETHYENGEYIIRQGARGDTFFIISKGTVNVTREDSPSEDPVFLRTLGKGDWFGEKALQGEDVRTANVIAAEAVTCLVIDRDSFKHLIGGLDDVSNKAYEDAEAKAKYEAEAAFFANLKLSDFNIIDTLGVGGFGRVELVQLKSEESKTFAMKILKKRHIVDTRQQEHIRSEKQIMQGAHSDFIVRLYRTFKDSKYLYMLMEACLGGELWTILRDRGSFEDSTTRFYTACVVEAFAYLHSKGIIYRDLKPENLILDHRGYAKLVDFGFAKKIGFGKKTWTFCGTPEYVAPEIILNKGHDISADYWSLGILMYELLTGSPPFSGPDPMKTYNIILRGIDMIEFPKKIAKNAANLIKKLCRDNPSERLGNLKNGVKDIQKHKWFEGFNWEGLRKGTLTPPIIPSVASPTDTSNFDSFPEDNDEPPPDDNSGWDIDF
# Protocol Text: Kinase Profiling Assay
# Type: biochemical
# Measurement Setup: 100 μM peptide
# Description: Every kinase activity measurement was conducted in duplicate. In addition to determining the IC50 of the compound, the specificity of MK2 inhibitory peptides was assessed by examining activities of all 266 human kinases available for testing in the Millipore kinase profiling service (Table 1).
Listed below: PKG1α(h) % activity values for each entry.
Numbers only here, please. The scale is %.

Examples with answers:
# Record Sequence, Observed Value
measured = [
    ("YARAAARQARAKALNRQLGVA (Mammalian) [MMI-0200]", 70),
    ("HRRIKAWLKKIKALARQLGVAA (Mammalian) [MMI-0500]", 25),
]

State the recorded PKG1α(h) % activity for this entry: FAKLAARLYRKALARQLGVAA [MMI-0300]
64
